Biological target: T1, MBP-Sbh1 full length, P52870
T1 chain: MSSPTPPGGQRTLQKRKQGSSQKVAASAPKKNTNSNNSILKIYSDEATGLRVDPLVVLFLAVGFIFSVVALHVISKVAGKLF
Test: pull-down (Ni-NTA capture after coexpression, Coomassie quantification)
Conditions: chain shown with the change; capture assay repeated three times; parent: 1
The binders listed here are annotated with their ratio to parent.
No unit in the answer, please; the number alone is enough.

His-tagged ySgt2-C (ySgt2 222-346), Q12118 I295D (protein) SLNLEKTVPEQSRDADVDASQGASAGGLPDLGSLLGGGLGGLMNNPQLMQAAQKMMSNPGAMQNIQKMMQDPSDRQMAEGFASGGGTPNLSDLMNNPALRNMAGNLFGGAGAQSTDETPDNENKQ :: 0.21

Request: Sample His-tagged ySgt2-C (ySgt2 222-346), Q12118 L320D (protein) SLNLEKTVPEQSRDADVDASQGASAGGLPDLGSLLGGGLGGLMNNPQLMQAAQKMMSNPGAMQNIQKMMQDPSIRQMAEGFASGGGTPNLSDLMNNPADRNMAGNLFGGAGAQSTDETPDNENKQ — what was its ratio to parent?
Result: 0.23
